- Target under test: androgen receptor (Homo sapiens, UniProt P10275)
- Sequence (P10275 whole entry Q868H, form open): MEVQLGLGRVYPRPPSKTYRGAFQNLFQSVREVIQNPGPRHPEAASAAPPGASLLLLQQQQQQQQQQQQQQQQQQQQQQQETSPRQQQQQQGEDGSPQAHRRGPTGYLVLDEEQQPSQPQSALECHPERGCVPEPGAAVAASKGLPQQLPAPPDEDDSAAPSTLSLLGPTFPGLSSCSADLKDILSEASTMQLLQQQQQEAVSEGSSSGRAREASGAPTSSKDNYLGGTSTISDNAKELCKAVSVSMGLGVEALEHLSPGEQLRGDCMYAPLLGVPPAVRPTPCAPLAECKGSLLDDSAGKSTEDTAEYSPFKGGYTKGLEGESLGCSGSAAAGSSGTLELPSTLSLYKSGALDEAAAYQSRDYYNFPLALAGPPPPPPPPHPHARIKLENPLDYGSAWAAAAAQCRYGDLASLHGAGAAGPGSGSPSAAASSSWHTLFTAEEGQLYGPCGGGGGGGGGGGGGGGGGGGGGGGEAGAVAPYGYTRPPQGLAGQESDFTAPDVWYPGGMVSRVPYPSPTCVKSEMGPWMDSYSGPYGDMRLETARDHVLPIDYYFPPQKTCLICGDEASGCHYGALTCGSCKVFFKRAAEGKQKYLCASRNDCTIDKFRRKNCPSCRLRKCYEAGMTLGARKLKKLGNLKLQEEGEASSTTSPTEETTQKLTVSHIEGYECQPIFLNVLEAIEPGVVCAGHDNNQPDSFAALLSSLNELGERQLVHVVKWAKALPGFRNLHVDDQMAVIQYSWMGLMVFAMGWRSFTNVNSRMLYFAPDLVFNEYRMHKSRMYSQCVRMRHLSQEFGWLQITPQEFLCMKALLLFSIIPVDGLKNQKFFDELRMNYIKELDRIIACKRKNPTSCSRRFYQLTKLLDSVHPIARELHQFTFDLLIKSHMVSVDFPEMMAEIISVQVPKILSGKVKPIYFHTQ
- Measurement protocol: AR Antagonist Cell Assay (MMTV-luciferase reporter, DHT-stimulated)
- Test settings: MDA-MB453-MMTV clone 54-19 cells, inhibition of induction by 100 pM DHT, 17 hr
pIC50: −log10 of the molar value.
Experimental endpoint: pIC50

Below, each entry is followed by its recorded pIC50 result.
Compound: O=c1cc(C(F)(F)F)c2cc(Cc3ccc(S(=O)(=O)N4CCC5(CC4)OCCO5)cc3)ccc2o1
pIC50: 5.14
//
Compound: O=c1cc(C(F)(F)F)c2cc(Cc3ccc(S(=O)(=O)N4CCCCC4CO)cc3)ccc2[nH]1 (centres unmarked)
pIC50: 5.01
//
Compound: O=c1cc(C(F)(F)F)c2cc(Cc3ccc(S(=O)(=O)N4CCCC4CO)cc3)ccc2o1 (centres unmarked)
pIC50: 5.47

(I) O=c1cc(C(F)(F)F)c2cc(Cc3ccc(S(=O)(=O)N4CCCCCC4)cc3)ccc2[nH]1
(II) O=c1cc(C(F)(F)F)c2cc(Cc3ccc(S(=O)(=O)N4CCC4)cc3)ccc2[nH]1
Could you kindly indicate whether I or II has the higher pIC50 value? # reply format: chosen label
II
(II: 5.54, I: 5.04)

###

- Target under test: androgen receptor (Homo sapiens, UniProt P10275)
- Measurement protocol: AR Antagonist Cell Assay (MMTV-luciferase reporter, DHT-stimulated)
- Test settings: MDA-MB453-MMTV clone 54-19 cells, inhibition of induction by 100 pM DHT, 17 hr
Experimental endpoint: IC50 (µM)

Compound: O=c1cc(C(F)(F)F)c2cc(Cc3ccc(S(=O)(=O)N4CCN(CCO)CC4)cc3)ccc2o1 [Example 43]
Endpoint unit: µM
IC50: 8.9
--
Compound: O=c1cc(C(F)(F)F)c2cc(Cc3ccc(S(=O)(=O)N4CCCC5CCCCC54)cc3)ccc2o1 (stereo not drawn) [Example 53]
Endpoint unit: µM
IC50: 4.2
--
Compound: O=c1cc(C(F)(F)F)c2cc(Cc3ccc(S(=O)(=O)N4CCCCCC4)cc3)ccc2o1 [Example 57]
Endpoint unit: µM
IC50: 6.8
--
Compound: O=c1cc(C(F)(F)F)c2cc(Cc3ccc(S(=O)(=O)N4CCN(c5ccncc5)CC4)cc3)ccc2o1 [Example 50]
Endpoint unit: µM
IC50: 1.6
--
Compound: O=c1cc(C(F)(F)F)c2cc(Cc3ccc(S(=O)(=O)N4CCCCC4c4cccnc4)cc3)ccc2[nH]1 (stereo not drawn) [Example 14]
Endpoint unit: µM
IC50: 4.7

(1) O=c1cc(C(F)(F)F)c2cc(Cc3ccc(S(=O)(=O)N4CCc5ccccc5C4)cc3)ccc2[nH]1 [Example 2]
(2) O=c1cc(C(F)(F)F)c2cc(Cc3ccc(S(=O)(=O)N4Cc5ccccc5C4)cc3)ccc2o1 [Example 34]
(3) COc1cc2c(cc1OC)CN(S(=O)(=O)c1ccc(Cc3ccc4oc(=O)cc(C(F)(F)F)c4c3)cc1)CC2 [Example 35]
List from greatest to least IC50. Note for the reader: the ranking is given by listing the labels in the order requested.
1, 2, 3

(a) O=c1cc(C(F)(F)F)c2cc(Cc3ccc(S(=O)(=O)N4CCCC(CO)C4)cc3)ccc2o1 (stereo not drawn) [Example 45]
(b) O=c1cc(C(F)(F)F)c2cc(Cc3ccc(S(=O)(=O)N4CCCCC4CO)cc3)ccc2o1 (stereo not drawn) [Example 37]
Which entry shows the lesser value of IC50 here, a or b ? Return value: the label identifying the chosen record.
b
(b: 5.3 µM, a: 7.6 µM)

(I) COC(=O)[C@@H]1CCCN1S(=O)(=O)c1ccc(Cc2ccc3[nH]c(=O)cc(C(F)(F)F)c3c2)cc1 [Example 9]
(II) O=c1cc(C(F)(F)F)c2cc(Cc3ccc(S(=O)(=O)N4CCCC4CO)cc3)ccc2[nH]1 (stereo not drawn) [Example 18]
Return label of the item with the larger IC50. Candidates: I , II . Lab log: write the label of the selected item as the result.
II
(II: 8 µM, I: 5.4 µM)
